Examples of compounds with documented The amount of excreted glucose in urine follow.
system: male Wistar rats; test: Activity on rat's sugar urine excretion; format: in vivo; conditions: 100 mg/kg oral, urine collected 24 hours, per day and individual

Compound: CCc1ccc(Cc2c(O[C@@H]3O[C@H](COC(=O)OC)[C@@H](O)[C@H](O)[C@H]3O)nn(Cc3ccc(OC)cc3)c2C(F)(F)F)cc1
The amount of excreted glucose in urine, mg: 59
--
Compound: COC(=O)OC[C@H]1O[C@@H](Oc2nn(C(C)C)c(C)c2Cc2ccc(C)c(F)c2)[C@H](O)[C@@H](O)[C@@H]1O
The amount of excreted glucose in urine, mg: 918
--
Compound: CCc1ccc(Cc2c(O[C@@H]3O[C@H](COC(=O)OC)[C@@H](O)[C@H](O)[C@H]3O)nn(C(C)C)c2C)cc1
The amount of excreted glucose in urine, mg: 598
--
Compound: CCc1ccc(Cc2c(O[C@@H]3O[C@H](COC(=O)OC)[C@@H](O)[C@H](O)[C@H]3O)nn(-c3ccccc3)c2C(F)(F)F)cc1
The amount of excreted glucose in urine, mg: 4.1
--
Compound: COC(=O)OC[C@H]1O[C@@H](Oc2nn(C(C)C)c(C)c2Cc2ccc(OC)c(F)c2)[C@H](O)[C@@H](O)[C@@H]1O
The amount of excreted glucose in urine, mg: 734
--
Compound: CCc1ccc(Cc2c(O[C@@H]3O[C@H](COC(=O)OC)[C@@H](O)[C@H](O)[C@H]3O)nn(Cc3ccccc3)c2C(F)(F)F)cc1
The amount of excreted glucose in urine, mg: 27
--
Compound: Cc1[nH]nc(O[C@@H]2O[C@H](CO)[C@@H](O)[C@H](O)[C@H]2O)c1Cc1ccc(OC(C)C)cc1 [Referential Example Compound 1, reference compound]
The amount of excreted glucose in urine, mg: 14

Origin of values: patent US7256209B2
